system: 276233-004-R-J1-PDC KRAS spheroids with HUVEC/MSC, viability; test: Anticancer human tumor 276233-004-R-J1-PDC patient-derived colon adenocarcinoma cell line growth inhibition [KRAS2]; settings: second compound 0.316 µM; first compound 0.1 µM; hits give low values;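 further: cells exposed to agents for seven days before viability read; 100% = DMSO vehicle control wells and lower values mean fewer viable cells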
quantity name: viability, T/C (%)

>  <molecule>
CN(C)C/C=C/C(=O)Nc1cc2c(Nc3ccc(F)c(Cl)c3)ncnc2cc1O[C@H]1CCOC1 + CNCc1ccccc1-c1csc(C(C)Nc2nc(C)nc3cc(OC)c(OC)cc23)c1

>  <quantity name>
viability, T/C

>  <numeric readout>
69.8

$$$$
>  <molecule>
COc1cc2nccc(Oc3ccc(NC(=O)C4(C(=O)Nc5ccc(F)cc5)CC4)cc3)c2cc1OC + C=CC(=O)N1CCN(c2nc(=O)n(-c3c(C)ccnc3C(C)C)c3nc(-c4c(O)cccc4F)c(F)cc23)C(C)C1

>  <quantity name>
viability, T/C

>  <numeric readout>
112

$$$$
>  <molecule>
COc1cc(Nc2ncc3c(n2)-c2ccc(Cl)cc2C(c2c(F)cccc2OC)=NC3)ccc1C(=O)O + C=CC(=O)N1CCN(c2nc(=O)n(-c3c(C)ccnc3C(C)C)c3nc(-c4c(O)cccc4F)c(F)cc23)C(C)C1

>  <quantity name>
viability, T/C

>  <numeric readout>
110

$$$$
>  <molecule>
CCNC(=O)CC1N=C(c2ccc(Cl)cc2)c2cc(OC)ccc2-n2c(C)nnc21 (stereo not given) + COc1cc2nc(C)nc(NC(C)c3cc(N)cc(C(F)(F)F)c3)c2cc1OC1CCOC1

>  <quantity name>
viability, T/C

>  <numeric readout>
80.2

$$$$
>  <molecule>
CC(C)n1nc(-c2ccc3oc(N)nc3c2)c2c(N)ncnc21 + C=CC(=O)N1CCN(c2nc(OCC3CCCN3C)nc3c2CCN(c2cccc4cccc(C)c24)C3)CC1CC#N

>  <quantity name>
viability, T/C

>  <numeric readout>
52.8

$$$$
>  <molecule>
CC(=O)OC12COC1CC(O)C1(C)C(=O)C(O)C3=C(C)C(OC(=O)C(O)C(NC(=O)OC(C)(C)C)c4ccccc4)CC(O)(C(OC(=O)c4ccccc4)C21)C3(C)C (stereo not given) + COc1cc2nc(C)nc(NC(C)c3cc(N)cc(C(F)(F)F)c3)c2cc1OC1CCOC1

>  <quantity name>
viability, T/C

>  <numeric readout>
72

$$$$
>  <molecule>
Cn1ncnc1[C@H]1c2n[nH]c(=O)c3cc(F)cc(c23)N[C@@H]1c1ccc(F)cc1 + C=CC(=O)N1CCN(c2nc(OCC3CCCN3C)nc3c2CCN(c2cccc4cccc(C)c24)C3)CC1CC#N

>  <quantity name>
viability, T/C

>  <numeric readout>
91.6

$$$$
>  <molecule>
CC(C)n1nc(-c2ccc3oc(N)nc3c2)c2c(N)ncnc21 + CC1OCC2(CCN(c3cnc(Sc4ccnc(N)c4Cl)c(N)n3)CC2)C1N

>  <quantity name>
viability, T/C

>  <numeric readout>
57.5

$$$$
>  <molecule>
CC1COCCN1c1cc(-c2ccnn2C)c2ccnc(-c3ccn[nH]3)c2n1 (stereo not given) + CNCc1ccccc1-c1csc(C(C)Nc2nc(C)nc3cc(OC)c(OC)cc23)c1

>  <quantity name>
viability, T/C

>  <numeric readout>
87.7

$$$$
>  <molecule>
CC1(C)CCC(CN2CCN(c3ccc(C(=O)NS(=O)(=O)c4ccc(NCC5CCOCC5)c([N+](=O)[O-])c4)c(Oc4cnc5[nH]ccc5c4)c3)CC2)=C(c2ccc(Cl)cc2)C1 + CC1OCC2(CCN(c3cnc(Sc4ccnc(N)c4Cl)c(N)n3)CC2)C1N

>  <quantity name>
viability, T/C

>  <numeric readout>
77.9

$$$$
